system.under.test: DuP 996 binding protein
protocol.text: Radioreceptor screening assay (displacement of tritiated DuP 996)
condition.info: inhibition of binding of 10 nM tritiated DuP 996, pH 7.4, 25° C., 60 minutes
Experimental: Male Sprague-Dawley rats (Charles River Breeding Laboratories) at 200-250 g were euthanatized by decapitation. Rat brain regions were dissected according to Heffner et al., Pharmacol. Biochem. Behav., 13, 453 (1980). Brain membranes were prepared by the method of Tam, Proc. Natl. Acad. Sci. USA, 80, 6703 (1983). […] Compounds to be screened were incubated with brain membranes. […] Nonspecific binding was determined by performing binding in the presence of 10 μM DuP 996. […]
Mark satisfied for IC50 under 80 µM, not satisfied if at or over.

Given `O=C1N2c3ccccc3CCc3cccc(c32)C1(Cc1ccncc1)Cc1ccncc1` , is recorded IC50 strictly lower than 80 µM?
satisfied

Given `O=C1N(c2ccccc2)c2ccccc2C1(Cc1cnn(Cc2ccccc2)c1)Cc1cnn(Cc2ccccc2)c1` , is recorded IC50 strictly lower than 80 µM?
not satisfied

Given `Cc1nc(CC2(Cc3csc(C)n3)C(=O)N(c3ccccc3)c3ccccc32)cs1` , is recorded IC50 strictly lower than 80 µM?
not satisfied

Given `O=C1N(c2ccccc2)c2ccccc2C1(Cc1ccnnc1)Cc1ccnnc1` , is recorded IC50 strictly lower than 80 µM?
not satisfied

Given `O=C1N(Cc2ccccc2)c2ccccc2C1(Cc1ccncc1)Cc1ccncc1` , is recorded IC50 strictly lower than 80 µM?
satisfied

Given `COc1ccc(C(C#N)(Cc2ccncc2)Cc2ccncc2)cc1` , is recorded IC50 strictly lower than 80 µM?
satisfied

Given `O=C1N2CCCc3cccc(c32)C1(Cc1ccncc1)Cc1ccncc1` , is recorded IC50 strictly lower than 80 µM?
satisfied

Given `O=C1N(c2ccccc2)c2ccccc2C1(c1cncnc1)c1cncnc1` , is recorded IC50 strictly lower than 80 µM?
satisfied

Given `Nc1ccc2c(c1)C(Cc1ccncc1)(Cc1ccncc1)c1ccccc1-2` , is recorded IC50 strictly lower than 80 µM?
satisfied

Given `Cc1ccc2c(c1)C(Cc1ccncc1)(Cc1ccncc1)c1ccccc1-2` , is recorded IC50 strictly lower than 80 µM?
satisfied
